Target: PRKCB2 (human) (UniProt P05771)
Sequence (P05771 whole entry, looked up): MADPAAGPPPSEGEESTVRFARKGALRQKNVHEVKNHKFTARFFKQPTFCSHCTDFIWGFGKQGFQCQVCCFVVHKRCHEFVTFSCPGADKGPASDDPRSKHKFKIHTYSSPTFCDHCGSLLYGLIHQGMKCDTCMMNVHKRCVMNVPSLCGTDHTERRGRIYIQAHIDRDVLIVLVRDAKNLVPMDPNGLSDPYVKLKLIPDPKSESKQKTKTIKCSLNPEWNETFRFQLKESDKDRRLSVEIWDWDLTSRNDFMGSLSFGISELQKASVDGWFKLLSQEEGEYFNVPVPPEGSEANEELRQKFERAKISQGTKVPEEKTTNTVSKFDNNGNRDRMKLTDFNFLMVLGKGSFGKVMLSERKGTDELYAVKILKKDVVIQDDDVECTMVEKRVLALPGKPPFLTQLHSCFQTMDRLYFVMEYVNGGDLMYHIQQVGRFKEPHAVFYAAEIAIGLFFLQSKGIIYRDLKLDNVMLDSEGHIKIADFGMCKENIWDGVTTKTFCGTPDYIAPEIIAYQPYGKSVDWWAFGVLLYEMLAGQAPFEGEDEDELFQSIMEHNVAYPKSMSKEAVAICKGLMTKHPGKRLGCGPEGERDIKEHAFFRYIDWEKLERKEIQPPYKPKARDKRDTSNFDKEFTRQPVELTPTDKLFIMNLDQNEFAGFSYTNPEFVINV
Assay: radiometric filter-binding kinase assay, Kinase HotSpot
Settings: compound 0.5 µM; ATP 10 µM
Give measured residual activity for each item. Keep answers brief.
Please give a number only; it is taken to be in %.

Inquiry: Provide value of residual activity for this record tested with PRKCB2 (human) (UniProt P05771): N/C(=N\N=C/c1ccc(-c2cccc([N+](=O)[O-])c2)o1)N[N+](=O)[O-]
Reply text: 100

Inquiry: Provide value of residual activity for this record tested with PRKCB2 (human) (UniProt P05771): O=c1[nH]c2ccccc2n1C1CCN(Cc2ccc(-c3nc4cc5[nH]cnc5cc4nc3-c3ccccc3)cc2)CC1
Reply text: 105

Inquiry: Provide value of residual activity for this record tested with PRKCB2 (human) (UniProt P05771): O=C(c1ccccc1)c1ccc(N2CCOCC2)cc1O
Reply text: 99.2

Inquiry: Provide value of residual activity for this record tested with PRKCB2 (human) (UniProt P05771): N#Cc1c(NC(=O)c2cccc3ccccc23)sc2c1CCCC2
Reply text: 104

Inquiry: Provide value of residual activity for this record tested with PRKCB2 (human) (UniProt P05771): FC(F)(F)c1ccc(/C=C/c2nc(COc3ccc(CCCCn4ccnn4)cc3)co2)cc1
Reply text: 93.1

Inquiry: Provide value of residual activity for this record tested with PRKCB2 (human) (UniProt P05771): Cc1cc(Nc2nc(-c3ccccc3)nc3ccccc23)n[nH]1
Reply text: 87.3

Inquiry: Provide value of residual activity for this record tested with PRKCB2 (human) (UniProt P05771): O=S(=O)(NCCNC/C=C/c1ccc(Br)cc1)c1cccc2cnccc12
Reply text: 90.2

Inquiry: Provide value of residual activity for this record tested with PRKCB2 (human) (UniProt P05771): O=c1c2ccccc2[nH]c(=S)n1CCN1CCC(=C(c2ccc(F)cc2)c2ccc(F)cc2)CC1
Reply text: 98.2

Inquiry: Provide value of residual activity for this record tested with PRKCB2 (human) (UniProt P05771): Cn1cc(/C=C2\C(=O)Nc3ccc(S(N)(=O)=O)cc32)c2ccccc21
Reply text: 86.7

Inquiry: Provide value of residual activity for this record tested with PRKCB2 (human) (UniProt P05771): CCOc1cc2ncnc(Nc3cccc(Br)c3)c2cc1OCC
Reply text: 98.6

Inquiry: Provide value of residual activity for this record tested with PRKCB2 (human) (UniProt P05771): COc1cc2c(cc1OC)-c1[nH]nc(Nc3cccc(F)c3)c1C2
Reply text: 103

Inquiry: Provide value of residual activity for this record tested with PRKCB2 (human) (UniProt P05771): COc1cccc(-c2cc(=O)c3ccccc3o2)c1N
Reply text: 102

Inquiry: Provide value of residual activity for this record tested with PRKCB2 (human) (UniProt P05771): COc1cc2c(Nc3ccc(Br)cc3F)ncnc2cc1OCC1CCN(C)CC1
Reply text: 91.6

Inquiry: Provide value of residual activity for this record tested with PRKCB2 (human) (UniProt P05771): CCc1nc(-c2ccc(OC)cc2)[nH]c1-c1ccncc1
Reply text: 109

Inquiry: Provide value of residual activity for this record tested with PRKCB2 (human) (UniProt P05771): COc1cc2ncnc(Nc3ccc(O)c(Br)c3)c2cc1OC
Reply text: 98.7

Inquiry: Provide value of residual activity for this record tested with PRKCB2 (human) (UniProt P05771): CCCCc1c(-c2ccc(O)cc2)[nH]c2nccnc12
Reply text: 118

Inquiry: Provide value of residual activity for this record tested with PRKCB2 (human) (UniProt P05771): O=C(O)c1ccc2c3c1cccc3c(=O)n1c3ccccc3nc21
Reply text: 97

Inquiry: Provide value of residual activity for this record tested with PRKCB2 (human) (UniProt P05771): O=C1NC(=O)c2c1c1c3ccccc3[nH]c1c1[nH]c3cc(Br)ccc3c21
Reply text: 72.8

Inquiry: Provide value of residual activity for this record tested with PRKCB2 (human) (UniProt P05771): c1ccc(-c2cnc(Nc3ccc(OCCN4CCCC4)cc3)s2)cc1
Reply text: 104

Inquiry: Provide value of residual activity for this record tested with PRKCB2 (human) (UniProt P05771): O=c1cc(N2CCOCC2)oc2c(-c3ccccc3)cccc12
Reply text: 104

Inquiry: Provide value of residual activity for this record tested with PRKCB2 (human) (UniProt P05771): N#CCCc1ccc2c(c1)-c1[nH]c3ccc([N+](=O)[O-])cc3c1CC(=O)N2
Reply text: 76.3

Inquiry: Provide value of residual activity for this record tested with PRKCB2 (human) (UniProt P05771): O=c1c(-c2ccc(F)cc2)c(-c2ccncc2)[nH]n1-c1ccc(Cl)cc1
Reply text: 92.4

Cited source: the kinase profiling compilation of Christmann-Franck et al. (2016)
